The reported measurements were obtained from the supplement of paper PMC4466140.

Biological target: CaRvs167-3
Experiment: SPOT peptide array binding signal intensity (averaged, normalized) (arbitrary units (background-subtracted, floor 0; scale differs between SH3 domains)); higher = stronger binding of the SH3 domain to the peptide
Classification field. Basis: SPOT peptide array binding signal intensity. Definitions: low class (below 7), middle class (7 to below 40), high class (40 or more)

Field: example entries. Status: answers known.
BINDER: LKPPIGRPPKFPKSP
ANSWER_LABEL: low class
//
BINDER: LTRRFPFLFPFDTRM
ANSWER_LABEL: high class
//
BINDER: VATSTSPKLPPRGKQ
ANSWER_LABEL: low class
//
BINDER: RMVRRRPLRVQFSAR
ANSWER_LABEL: high class
//
BINDER: PKMLPIPSKPTLFDL
ANSWER_LABEL: low class
//
BINDER: NVLRKILEIPLHSFS
ANSWER_LABEL: middle class
//
BINDER: TPEIPPPLPPKIMVH
ANSWER_LABEL: low class
//
BINDER: RSVKRPRRAPRPVVS
ANSWER_LABEL: middle class
//
BINDER: GKLKHIPRRPYEIER
ANSWER_LABEL: low class
//
BINDER: SHRLWLYAAPKRPKT
ANSWER_LABEL: middle class

q: Quick check: band for `QTREPNEPPPPSPAM`
a: low class

q: Category lookup for the binder `LFMKGTPEFPKSGFS`
a: low class
